test: The drug is tested on Bacteroides caccae strain: ATCC43185 for biotransformation. The drug concentrations were measured before and after a 12-h incubation by liquid-chromatography-coupled mass spectrometry (LC–MS); conditions: 2 µM

Compound | Bacterial Biotransformation
C#C[C@]1(OC(C)=O)CC[C@H]2[C@@H]3CCC4=C/C(=N/O)CC[C@@H]4[C@H]3CC[C@@]21CC [NORGESTIMATE] | Compound NOT metabolized
CCN(CC)C(=O)/C(C#N)=C/c1cc(O)c(O)c([N+](=O)[O-])c1 | Compound metabolized
CN(C)C(=O)Oc1cccc([N+](C)(C)C)c1.[Br-] [NEOSTIGMINE BROMIDE] | Compound NOT metabolized
COc1ccc2cc([C@H](C)C(=O)O)ccc2c1 | Compound NOT metabolized
CCS(=O)(=O)CCn1c([N+](=O)[O-])cnc1C | Compound metabolized
CCN(CC)C(C)CN1c2ccccc2Sc2ccccc21 (stereo not drawn) | Compound metabolized
CN1CCN(C(=O)O[C@H]2c3nccnc3C(=O)N2c2ccc(Cl)cn2)CC1 | Compound NOT metabolized
CCN1CCCC1CNC(=O)c1cc(S(=O)(=O)CC)c(N)cc1OC (stereo not drawn) [AMISULPRIDE] | Compound NOT metabolized
C[C@H]1O[C@@H](O[C@H]2[C@@H](O)C[C@H](O[C@H]3[C@@H](O)C[C@H](O[C@H]4CC[C@@]5(C)[C@H](CC[C@@H]6[C@@H]5C[C@@H](O)[C@]5(C)[C@@H](C7=CC(=O)OC7)CC[C@]65O)C4)O[C@@H]3C)O[C@@H]2C)C[C@H](O)[C@@H]1O | Compound NOT metabolized
CCN(CC)CCNC(C(=O)OCCC(C)C)c1ccccc1.Cl.Cl (stereo not drawn) | Compound NOT metabolized
CC[C@@]1(O)C(=O)OCc2c1cc1n(c2=O)Cc2cc3c(CN(C)C)c(O)ccc3nc2-1 | Compound NOT metabolized
COc1ccc(CCN(C)CCCC(C#N)(c2ccc(OC)c(OC)c2)C(C)C)cc1OC (stereo not drawn) | Compound NOT metabolized
Cc1nc2n(c(=O)c1CCN1CCC(c3noc4cc(F)ccc34)CC1)CCCC2 | Compound metabolized
C[C@]12CCC(=O)C=C1[C@@H]1C[C@@H]1[C@H]1[C@@H]3[C@@H]4C[C@@H]4[C@@]4(CCC(=O)O4)[C@@]3(C)CC[C@@H]12 | Compound NOT metabolized
COC1=CC(=O)C[C@@H](C)[C@]12Oc1c(Cl)c(OC)cc(OC)c1C2=O | Compound NOT metabolized
CCCCCCOC(=O)/N=C(/N)c1ccc(NCc2nc3cc(C(=O)N(CCC(=O)OCC)c4ccccn4)ccc3n2C)cc1.CS(=O)(=O)O [DABIGATRAN ETEXILATE MESYLATE] | Compound NOT metabolized
COC(=O)[C@H](c1ccccc1Cl)N1CCc2sccc2C1.O=S(=O)(O)O [CLOPIDOGREL BISULFATE] | Compound NOT metabolized
Br.CN(C)CCCC1(c2ccc(F)cc2)OCc2cc(C#N)ccc21 (stereo not drawn) [CITALOPRAM HYDROBROMIDE] | Compound NOT metabolized
COc1cc(C(=O)NCc2ccc(OCCN(C)C)cc2)cc(OC)c1OC [TRIMETHOBENZAMIDE] | Compound NOT metabolized
COc1cc2nc(N(C)CCCNC(=O)C3CCCO3)nc(N)c2cc1OC (stereo not drawn) | Compound NOT metabolized
NC12CC3CC(CC(C3)C1)C2 | Compound NOT metabolized
CC(C)(C)NC(=O)[C@H]1CC[C@H]2[C@@H]3CC[C@H]4NC(=O)C=C[C@]4(C)[C@H]3CC[C@]12C [FINASTERIDE] | Compound NOT metabolized
CC(CN(C)C)CN1c2ccccc2CCc2ccccc21.O=C(O)/C=C\C(=O)O (stereo not drawn) [TRIMIPRAMINE MALEATE] | Compound NOT metabolized
CCOc1ccc2nc(S(N)(=O)=O)sc2c1 [ETHOXZOLAMIDE] | Compound metabolized
CCN1CCCC1CNC(=O)c1cc(S(N)(=O)=O)ccc1OC (stereo not drawn) [SULPIRIDE] | Compound NOT metabolized
O=C1CC2(CCCC2)CC(=O)N1CCCCN1CCN(c2ncccn2)CC1 | Compound NOT metabolized
CC#CCn1c(N2CCC[C@@H](N)C2)nc2c1c(=O)n(Cc1nc(C)c3ccccc3n1)c(=O)n2C | Compound metabolized
COc1ccc2[nH]c([S+]([O-])Cc3ncc(C)c(OC)c3C)nc2c1 (stereo not drawn) | Compound metabolized
CN(C)CCc1c[nH]c2ccc(CS(=O)(=O)N3CCCC3)cc12 | Compound NOT metabolized
CC(N)C12CC3CC(CC(C3)C1)C2 (stereo not drawn) | Compound NOT metabolized
C#C[C@]1(OC(C)=O)CC[C@H]2[C@@H]3CCC4=C[C@@H](OC(C)=O)CC[C@@H]4[C@H]3CC[C@@]21C [ETHYNODIOL DIACETATE] | Compound NOT metabolized
CC(C)(C#N)c1cc(Cn2cncn2)cc(C(C)(C)C#N)c1 | Compound metabolized
C[C@@H](c1ncncc1F)[C@](O)(Cn1cncn1)c1ccc(F)cc1F | Compound NOT metabolized

---

test: The drug is tested on Blautia hansenii strain: DSM20583 for biotransformation. The drug concentrations were measured before and after a 12-h incubation by liquid-chromatography-coupled mass spectrometry (LC–MS); settings: 2 µM
Reported endpoint: Bacterial Biotransformation

Compound | Reported endpoint | Observed
CC[C@@]1(O)C(=O)OCc2c1cc1n(c2=O)Cc2cc3c(CN(C)C)c(O)ccc3nc2-1 | Bacterial Biotransformation | Compound NOT metabolized
O=C(O)CCc1nc(-c2ccccc2)c(-c2ccccc2)o1 | Bacterial Biotransformation | Compound metabolized
CCCCC(=O)N(Cc1ccc(-c2ccccc2-c2nnn[nH]2)cc1)[C@H](C(=O)O)C(C)C | Bacterial Biotransformation | Compound NOT metabolized
COc1ccc([C@@H]2Sc3ccccc3N(CCN(C)C)C(=O)[C@@H]2OC(C)=O)cc1 | Bacterial Biotransformation | Compound metabolized
COc1cc2nc(N(C)CCCNC(=O)C3CCCO3)nc(N)c2cc1OC (centres undefined) | Bacterial Biotransformation | Compound NOT metabolized
CN(C)CCC=C1c2ccccc2COc2ccccc21 [DOXEPIN] | Bacterial Biotransformation | Compound NOT metabolized
N#Cc1ccc(C(c2ccc(C#N)cc2)n2cncn2)cc1 | Bacterial Biotransformation | Compound NOT metabolized
CCN(CC)C(=O)/C(C#N)=C/c1cc(O)c(O)c([N+](=O)[O-])c1 | Bacterial Biotransformation | Compound metabolized
CN(C)C(=O)Oc1cc(OC(=O)N(C)C)cc(C(O)CNC(C)(C)C)c1 (centres undefined) | Bacterial Biotransformation | Compound NOT metabolized

---

test: The drug is tested on Bacteroides finegoldii strain: DSM17565 for biotransformation. The drug concentrations were measured before and after a 12-h incubation by liquid-chromatography-coupled mass spectrometry (LC–MS); conditions: 2 µM

Molecule | Bacterial Biotransformation
Cc1cn([C@H]2C[C@H](N=[N+]=[N-])[C@@H](CO)O2)c(=O)[nH]c1=O | Compound NOT metabolized
CN1C(=O)CC(C)(c2ccccc2)C1=O (centres undefined) [METHSUXIMIDE] | Compound NOT metabolized
CO[C@]12C[C@@H](COC(=O)c3cncc(Br)c3)CN(C)[C@@H]1Cc1cn(C)c3cccc2c13 | Compound NOT metabolized
Cc1ccc(-c2nc3ccc(C)cn3c2CC(=O)N(C)C)cc1 | Compound NOT metabolized
CC(=O)OCC(CCn1cnc2cnc(N)nc21)COC(C)=O | Compound metabolized
CC1=C(CC(=O)O)c2cc(F)ccc2/C1=C\c1ccc([S+](C)[O-])cc1 (centres undefined) | Compound NOT metabolized
CCCCC1=NC2(CCCC2)C(=O)N1Cc1ccc(-c2ccccc2-c2nnn[nH]2)cc1 | Compound metabolized
Cc1ccnc2c1NC(=O)c1cccnc1N2C1CC1 | Compound NOT metabolized
CN1C(=O)CCS(=O)(=O)C1c1ccc(Cl)cc1 (centres undefined) | Compound NOT metabolized

---

test: The drug is tested on Anaerotruncus colihominis strain: DSM17241 for biotransformation. The drug concentrations were measured before and after a 12-h incubation by liquid-chromatography-coupled mass spectrometry (LC–MS); conditions: 2 µM
Reported endpoint: Bacterial Biotransformation

Compound | Observed
COc1ccnc(C[S+]([O-])c2nc3ccc(OC(F)F)cc3[nH]2)c1OC (stereo not drawn) [PANTOPRAZOLE] | Compound metabolized
OC(CCN1CCCCC1)(c1ccccc1)C1CCCCC1 (stereo not drawn) [TRIHEXYPHENIDYL] | Compound NOT metabolized
Cc1ccnc2c1NC(=O)c1cccnc1N2C1CC1 [NEVIRAPINE] | Compound NOT metabolized
O=C1CN2Cc3c(ccc(Cl)c3Cl)N=C2N1 [ANAGRELIDE] | Compound NOT metabolized
CN1CCc2cccc3c2[C@H]1Cc1ccc(O)c(O)c1-3 [APOMORPHINE] | Compound NOT metabolized
COC1=CC(=O)C[C@@H](C)[C@]12Oc1c(Cl)c(OC)cc(OC)c1C2=O [GRISEOFULVIN] | Compound NOT metabolized
CNC(=C[N+](=O)[O-])NCCSCc1csc(CN(C)C)n1 [NIZATIDINE] | Compound metabolized
OC(CCN1CCCCC1)(c1ccccc1)C1CC2C=CC1C2 (stereo not drawn) [BIPERIDEN] | Compound NOT metabolized
CC[C@H](C)C(=O)O[C@H]1CCC=C2C=C[C@H](C)[C@H](CC[C@@H]3C[C@@H](O)CC(=O)O3)[C@H]21 [MEVASTATIN] | Compound metabolized
CCN(CC)CCOC(=O)C1(C2CCCCC2)CCCCC1 [DICYCLOMINE] | Compound NOT metabolized
C=CCN1CC[C@]23c4c5ccc(O)c4O[C@H]2C(=O)CC[C@@]3(O)[C@H]1C5 [NALOXONE] | Compound NOT metabolized
COc1ccc2cc([C@H](C)C(=O)O)ccc2c1 [NAPROXEN] | Compound NOT metabolized
CC(=O)OCC(=O)[C@@]1(O)[C@@H](C)C[C@H]2[C@@H]3CCC4=CC(=O)C=C[C@]4(C)[C@@]3(F)[C@@H](O)C[C@@]21C [BETAMETHASONE ACETATE] | Compound NOT metabolized
CC(=O)O[C@]1(C(C)=O)CC[C@H]2[C@@H]3C=C(Cl)C4=CC(=O)[C@@H]5C[C@@H]5[C@]4(C)[C@H]3CC[C@@]21C [CYPROTERONE ACETATE] | Compound metabolized
CN(C)CCOC(c1ccc(Cl)cc1)c1ccccn1.O=C(O)/C=C\C(=O)O (stereo not drawn) [CARBINOXAMINE MALEATE] | Compound NOT metabolized
Cc1ccc(/C(=C\CN2CCCC2)c2ccccn2)cc1 [TRIPROLIDINE] | Compound NOT metabolized
CC[C@@H](CO)NC(=O)[C@@H]1C=C2c3cccc4c3c(cn4C)C[C@H]2N(C)C1.O=C(O)/C=C\C(=O)O [METHYSERGIDE MALEATE] | Compound metabolized
Cc1cc2c(s1)Nc1ccccc1N=C2N1CCN(C)CC1 [OLANZAPINE] | Compound NOT metabolized
COc1ccc(/C=C/C(=O)Nc2ccccc2C(=O)O)cc1OC | Compound NOT metabolized
C=CC[C@@H]1/C=C(\C)C[C@H](C)C[C@H](OC)[C@H]2O[C@@](O)(C(=O)C(=O)N3CCCC[C@H]3C(=O)O[C@H](/C(C)=C/[C@@H]3CC[C@@H](O)[C@H](OC)C3)[C@H](C)[C@@H](O)CC1=O)[C@H](C)C[C@@H]2OC.O [TACROLIMUS] | Compound metabolized
CC(=O)OCC(=O)[C@@]12N=C(C)O[C@@H]1C[C@H]1[C@@H]3CCC4=CC(=O)C=C[C@]4(C)[C@H]3[C@@H](O)C[C@@]12C [DEFLAZACORT] | Compound metabolized
C#C[C@]1(OC(C)=O)CC[C@H]2[C@@H]3CCC4=C/C(=N/O)CC[C@@H]4[C@H]3CC[C@@]21CC [NORGESTIMATE] | Compound NOT metabolized
CC[C@@]1(O)C(=O)OCc2c1cc1n(c2=O)Cc2cc3c(CN(C)C)c(O)ccc3nc2-1 [TOPOTECAN] | Compound NOT metabolized
CCCCC1=NC2(CCCC2)C(=O)N1Cc1ccc(-c2ccccc2-c2nnn[nH]2)cc1 [IRBESARTAN] | Compound metabolized
CCOc1ccc(NC(C)=O)cc1 [PHENACETIN] | Compound NOT metabolized
CCc1nn(CCCN2CCN(c3cccc(Cl)c3)CC2)c(=O)n1CCOc1ccccc1 [NEFAZODONE] | Compound NOT metabolized
O=C(NC(Cc1cc(=O)[nH]c2ccccc12)C(=O)O)c1ccc(Cl)cc1 (stereo not drawn) [REBAMIPIDE] | Compound NOT metabolized
CC(=O)Nc1ccc(OC(C)=O)cc1 [DIACETAMATE] | Compound metabolized
NC12CC3CC(CC(C3)C1)C2 [AMANTADINE] | Compound NOT metabolized
CC(NC(C)(C)C)C(=O)c1cccc(Cl)c1 (stereo not drawn) [BUPROPION] | Compound NOT metabolized
COc1cc2nc(N(C)CCCNC(=O)C3CCCO3)nc(N)c2cc1OC (stereo not drawn) [ALFUZOSIN] | Compound NOT metabolized
COc1cc(C(=O)NCc2ccc(OCCN(C)C)cc2)cc(OC)c1OC [TRIMETHOBENZAMIDE] | Compound NOT metabolized
CCN(CC)CCCC(C)Nc1c2ccc(Cl)cc2nc2ccc(OC)cc12 (stereo not drawn) [QUINACRINE] | Compound NOT metabolized

Reference source for all entries: ChEMBL document CHEMBL5303573
